Data origin, for the record: PubChem BioAssay AID804

METHOD_NOTES: growth inhibitors of yeast BB579 in restrictive medium, primary screen, yeast lifespan-shortening project, S. cerevisiae (AID 804)
COND: OD615, 48 h, at 10 µM
About 710 (0.51%) of roughly 140,000 compounds were called active.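 How the source made its calls: active means inhibition above a set limit, 3 SD over the mean compound inhibition (cut at about 44% in these data); inactive means the rest.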 For the sample, actives were picked, then their nearest neighbours and some compounds at random.
Choose one outcome from this list and give only that: true = active, false = inactive

[[record]]
compound = "CCCCOc1ccc(C(=O)NCC(=O)OCC(=O)N2CCN(S(=O)(=O)c3ccc(C)cc3C)CC2)cc1"
category = "false"


-- ask Could you please tell me the result logged for "Cc1ccc(OCCOCCOc2ccc(Br)cc2/C=N\NC(=O)c2ccncc2)cc1" in this assay?
-- reply false

-- ask Could you please tell me the result logged for "CCc1cc(C(N)=O)c(NC(=O)c2ccc(OC)cc2)s1" in this assay?
-- reply false

-- ask Could you please tell me the result logged for "CC1(C)CC(=O)C(N=Nc2ccc(S(=O)(=O)N3CCCCCC3)cc2)=C(O)C1" in this assay?
-- reply false

-- ask Could you please tell me the result logged for CCOC(=O)c1cc2c(nc1NC(=S)Nc1ccccc1)CC(C)(CC)OC2 (stereo unspecified) in this assay?
-- reply false

-- ask Could you please tell me the result logged for "CNC(=O)c1cc2c(ccc3ccccc32)oc1=N" in this assay?
-- reply true

-- ask Could you please tell me the result logged for "COc1cc(/C=C2\SC(=S)N(Nc3ncc(C(F)(F)F)cc3Cl)C2=O)cc(OC)c1OC" in this assay?
-- reply false

-- ask Could you please tell me the result logged for "Nc1c(C(=O)NCc2ccccc2)nnn1Cc1cccc(Cl)c1" in this assay?
-- reply false

-- ask Could you please tell me the result logged for CCOc1ccc(/C=N/NC(=O)C(C)Sc2ccccn2)cc1OCC (stereo unspecified) in this assay?
-- reply false

-- ask Could you please tell me the result logged for "CCCCn1c(=S)[nH]c2ccccc2c1=O" in this assay?
-- reply false

-- ask Could you please tell me the result logged for "Fc1ccc2c(c1)C(c1cccnc1)=NNC(c1cccs1)=N2" in this assay?
-- reply false
